B1: library; a variant is named by its letters at N, in order (parent)
chain: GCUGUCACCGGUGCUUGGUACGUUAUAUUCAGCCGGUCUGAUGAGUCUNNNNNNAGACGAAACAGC

Variants of: B1
Experiment: FACS-Seq fitted mean relative fluorescence mCherry/BFP with ligand (log10 relative fluorescence); HEK293T overexpressing SLC46A1; ligand concentration (+) FACS-Seq: 6 mM; higher = higher reporter protein expression
Conditions: with (6R,S)-folinic acid; ligand present: yes
Class (by FACS-Seq fitted mean (log10)) -- bin 1 (below 0.3), bin 2 (0.3 to below 0.6), bin 3 (0.6 or more)

In [3]: df
Out[3]:
    mutation_spec  class
 0         GUCAUG  bin 1
 1         AUGACA  bin 2
 2         GAUACG  bin 1
 3         UAAUGA  bin 1
 4         UGCCGG  bin 3
 5         UGUGUG  bin 2
 6         CGCAUU  bin 2
 7         UGCGCU  bin 2
 8         GAAGCG  bin 1
 9         GUAUGC  bin 2
10         GAACAG  bin 3
11         AUCACA  bin 1
12         AAUAGA  bin 2
13         AUGGUA  bin 1
14         UUGGGG  bin 2
15         GGAUAA  bin 3
16         UAAUGU  bin 3
17         AACCGG  bin 1
18         ACGACC  bin 3
19         AGGAUA  bin 1
20         GGCGAU  bin 2
